meta.source: patent US10647706B2

# System: human neutrophils
# PROTOCOL DETAILS: Neutrophil migration (chemotaxis assay, Transwell, IL-8)
# Format: cell-based
# PROTOCOL CONDITIONS: Homo sapiens, Neutrophil; 10 nM IL-8, 1 hour incubation; class symbols; read-out: Migration of human neutrophils IC50
Give measured IC50 for each item. Keep answers brief.

Hi team, please reply with IC50 for each item in this list.
1. CC[C@@H](Nc1c(Nc2ccc(Cl)c(S(C)(=O)=NC)c2O)c(=O)c1=O)c1ccc(C)o1 (single isomer, unassigned; (+)) [Example 20]
2. CC[C@@H](Nc1c(Nc2ccc(Cl)c(S(C)(=O)=NC)c2O)c(=O)c1=O)c1ccccn1 (single isomer, unassigned; (-)) [Example 12]
3. CN=S(C)(=O)c1c(Cl)ccc(Nc2c(N[C@@H](c3ccc(C)o3)[C@H]3CCCS3)c(=O)c2=O)c1O (stereo partly drawn) [Example 5]

["< 300 nM", "< 300 nM", "< 300 nM"]

###

# SYSTEM UNDER TEST: CXCR2 receptor (Homo sapiens (Human))
# Sequence (P25025 whole entry): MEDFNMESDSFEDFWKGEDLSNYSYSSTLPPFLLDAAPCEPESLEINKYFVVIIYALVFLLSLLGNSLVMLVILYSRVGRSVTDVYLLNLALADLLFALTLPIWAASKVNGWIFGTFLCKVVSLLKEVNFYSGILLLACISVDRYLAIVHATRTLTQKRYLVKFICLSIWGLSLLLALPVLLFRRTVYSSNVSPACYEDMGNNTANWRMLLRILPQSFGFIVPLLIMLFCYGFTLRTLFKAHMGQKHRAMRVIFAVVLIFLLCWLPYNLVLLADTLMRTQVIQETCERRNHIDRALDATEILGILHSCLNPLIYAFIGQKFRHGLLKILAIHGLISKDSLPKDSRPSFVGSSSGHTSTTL
# PROTOCOL DETAILS: β-arrestin recruitment test, PathHunter HEK293-CXCR2 cells stimulated with CXCL8
# Assay type: cell-based
# PROTOCOL CONDITIONS: CXCL8 10 nM, class symbols
PROPERTY LABEL: IC50

Consider the reported IC50 for these molecules:
>>> result("CN=S(C)(=O)c1c(Cl)ccc(Nc2c(N[C@@H](c3ccc(C)o3)[C@H]3CCCS3)c(=O)c2=O)c1O (stereo partly drawn)")
"≥ 20 nM"
>>> result("CC[C@@H](Nc1c(Nc2ccc(Cl)c(S(C)(=O)=Nc3ccncc3)c2O)c(=O)c1=O)c1ccc(C)o1 (stereo partly drawn)")
"≥ 20 nM"

Hi team, please reply with IC50 for each item in this list.
1. CC[C@@H](Nc1c(Nc2ccc(Cl)c(S(C)(=O)=NC)c2O)c(=O)c1=O)c1ccccn1 (single isomer, unassigned; (-)) [Example 12]
2. CC[C@@H](Nc1c(Nc2ccc(Cl)c(S(C)(=O)=NC)c2O)c(=O)c1=O)c1ccc(C)o1 (single isomer, unassigned; (+))
3. CC[C@@H](Nc1c(Nc2cccc(S(C)(=O)=NC)c2O)c(=O)c1=O)c1ccc(C)o1 (stereo partly drawn) [Example 8]
4. CC[C@@H](Nc1c(Nc2cccc(S(C)(=O)=NC)c2O)c(=O)c1=O)c1ccc(C)o1 (single isomer, unassigned; (+)) [Example 16]

1. < 20 nM
2. < 20 nM
3. ≥ 20 nM
4. < 20 nM
